Assay: clinical
Conditions: male, human, in vivo, po, 100 mg, Tmax

[
  {
    "Compound": "Nc1nc(=O)n(C2C=CC(CO)O2)cc1F [β-D-D4FC]",
    "Tmax / h": 2.9
  }
]

====

Assay: in vivo
Conditions: rat, 45 mg/kg

[
  {
    "Molecule": "Nc1nc(=O)n(C2C=CC(CO)O2)cc1F (stereo not shown)",
    "Units Symbol": "µM·h",
    "AUC at 28 d": 161
  }
]

====

Molecular target: DNA Pol β (Homo sapiens, UniProt P06746)
pIC50: −log10 of the molar value.
The following compounds are listed with their measured pIC50 values.

[
  {
    "Structure Smiles String": "Nc1nc(=O)n([C@H]2C=C[C@@H](COP(=O)(O)OP(=O)(O)OP(=O)(O)O)O2)cc1F",
    "Assay System": "DNA Pol β (Homo sapiens, UniProt P06746)",
    "pIC50": 5.92
  },
  {
    "Structure Smiles String": "Nc1ccn([C@H]2CC[C@@H](COP(=O)(O)OP(=O)(O)OP(=O)(O)O)O2)c(=O)n1",
    "Assay System": "DNA Pol β (Homo sapiens, UniProt P06746)",
    "pIC50": 6.60
  },
  {
    "Structure Smiles String": "Nc1ccn([C@@H]2CS[C@H](COP(=O)(O)OP(=O)(O)OP(=O)(O)O)O2)c(=O)n1",
    "Assay System": "DNA Pol β (Homo sapiens, UniProt P06746)",
    "pIC50": 4.99
  }
]

====

Test: clinical
Details: male, human, in vivo, po, 25 mg, T ½

[
  {
    "Compound": "Nc1nc(=O)n(C2C=CC(CO)O2)cc1F [β-D-D4FC]",
    "half-life (h)": 15.6
  }
]

====

Assay: clinical
Details: male, human, in vivo, 50 mg, AUC(0-∞)
Property Measured: AUC(0-inf) (ng·h/mL)

[
  {
    "Compound": "Nc1nc(=O)n(C2C=CC(CO)O2)cc1F [β-D-D4FC]",
    "Property Measured": "AUC(0-inf)",
    "Result Number": 3500
  }
]

====

Assay: Food effect, fed versus fasted crossover (Cohort 4)
Details: human, plasma, oral, 100 mg, tmax, 100 MG FED, coated tablet after high fat meal, PART B

[
  {
    "Compound": "Nc1nc(=O)n(C2C=CC(CO)O2)cc1F (stereo not shown)",
    "Tmax": "2.5 h"
  }
]

====

Test: clinical
Settings: male, human, in vivo, 25 mg, CLtot/F

[
  {
    "Compound": "Nc1nc(=O)n(C2C=CC(CO)O2)cc1F (stereo not shown)",
    "Units Symbol": "mL/min",
    "CL/F": 230
  }
]

====

Assay: clinical
Details: male, human, in vivo, po, 200 mg, Cmax

[
  {
    "Compound": "Nc1nc(=O)n(C2C=CC(CO)O2)cc1F (stereo not shown)",
    "Cmax": "7.7 µM"
  }
]

====

Assay: Food effect, fed versus fasted crossover (Cohort 4)
Conditions: human, plasma, oral, 100 mg, Cmax, 100 MG FASTED, coated tablet, PART B

[
  {
    "Compound": "Nc1nc(=O)n(C2C=CC(CO)O2)cc1F [β-D-D4FC]",
    "Cmax (ng/mL)": 1160
  }
]

====

Experiment: clinical
Settings: male, human, in vivo, po, 200 mg, AUC

[
  {
    "Compound": "Nc1nc(=O)n(C2C=CC(CO)O2)cc1F [β-D-D4FC]",
    "AUC, µM·h": 52.5
  }
]

====

Test: clinical
Settings: male, human, in vivo, po, 50 mg, Cmax
Property Measured: Cmax

[
  {
    "Compound": "Nc1nc(=O)n(C2C=CC(CO)O2)cc1F (stereo not shown)",
    "Property Measured": "Cmax",
    "Result": "4.4 µM"
  }
]

====

Assay: clinical
Conditions: male, human, in vivo, 25 mg, AUC(0-∞)

[
  {
    "Compound": "Nc1nc(=O)n(C2C=CC(CO)O2)cc1F (stereo not shown)",
    "AUC(0-inf), ng·h/mL": 1840
  }
]

====

Test system: HepG2 cells
Test: Mitochondrial toxicity testing (mitDNA, rRNA, lactic acid)
Assay type: cell-based
Conditions: 1 μM, 14 days
The following compounds are listed with their measured % Change in rRNA values.

[
  {
    "Compound": "Nc1nc(=O)n([C@H]2C=C[C@@H](CO)O2)cc1F",
    "Units Symbol": "%",
    "% Change in rRNA": 0
  },
  {
    "Compound": "Nc1ccn([C@H]2CC[C@@H](CO)O2)c(=O)n1",
    "Units Symbol": "%",
    "% Change in rRNA": "−65.4"
  },
  {
    "Compound": "Nc1ccn([C@@H]2CS[C@H](CO)O2)c(=O)n1",
    "Units Symbol": "%",
    "% Change in rRNA": "−0.3"
  },
  {
    "Compound": "Nc1nc(=O)n(C2C=CC(CO)O2)cc1F (stereo not shown)",
    "Units Symbol": "%",
    "% Change in rRNA": 0
  }
]

====

Assay: clinical
Conditions: male, human, in vivo, 10 mg, Cmax
Property Measured: Cmax (ng/mL)

[
  {
    "Compound": "Nc1nc(=O)n(C2C=CC(CO)O2)cc1F (stereo not shown)",
    "Property Measured": "Cmax",
    "Units Symbol": "ng/mL",
    "Result Number": 197
  }
]

====

Assay: clinical
Conditions: male, human, in vivo, 200 mg, mean Tmax

[
  {
    "Compound": "Nc1nc(=O)n(C2C=CC(CO)O2)cc1F (stereo not shown)",
    "Tmax (h)": 2.9
  }
]

====

Tested on: HepG2 cells
Assay: Mitochondrial toxicity testing (mitDNA, rRNA, lactic acid)
Assay type: cell-based
Conditions: 1 μM, 14 days, normalized for cytotoxicity
Protocol: HepG2 cells were incubated for 14 days with the active agent. and mitDNA and rRNA levels were determined by quantitative real-time PCR. The results are tabulated in […]
Property Measured: % Change in Lactic Acid

[
  {
    "Compound": "Nc1ccn([C@@H]2CS[C@H](CO)O2)c(=O)n1",
    "Assay System": "HepG2 cells",
    "Result": "+23%"
  },
  {
    "Compound": "Nc1nc(=O)n(C2C=CC(CO)O2)cc1F (stereo not shown)",
    "Assay System": "HepG2 cells",
    "Result": "+12%"
  },
  {
    "Compound": "Nc1ccn([C@H]2CC[C@@H](CO)O2)c(=O)n1",
    "Assay System": "HepG2 cells",
    "Result": "+390%"
  },
  {
    "Compound": "Nc1nc(=O)n([C@H]2C=C[C@@H](CO)O2)cc1F",
    "Assay System": "HepG2 cells",
    "Result": "+25%"
  }
]

====

The following compounds are listed with their measured % Change in rRNA values.
Test system: HepG2 cells
Experiment: Mitochondrial toxicity testing (mitDNA, rRNA, lactic acid)
Format: cell-based
Conditions: 10 μM, 14 days

[
  {
    "Compound": "Nc1ccn([C@H]2CC[C@@H](CO)O2)c(=O)n1 [ddC, 2′,3′-dideoxycytidine]",
    "Units Symbol": "%",
    "% Change in rRNA": "−73.6"
  },
  {
    "Compound": "Nc1ccn([C@@H]2CS[C@H](CO)O2)c(=O)n1 [3TC, β-L-2′,3′-dideoxy-3′-thiacytidine]",
    "Units Symbol": "%",
    "% Change in rRNA": "−0"
  },
  {
    "Compound": "Nc1nc(=O)n(C2C=CC(CO)O2)cc1F [β-D-D4FC]",
    "Units Symbol": "%",
    "% Change in rRNA": 0
  },
  {
    "Compound": "Nc1nc(=O)n([C@H]2C=C[C@@H](CO)O2)cc1F [L-D4FC]",
    "Units Symbol": "%",
    "% Change in rRNA": "−75.5"
  }
]

====

Assay: clinical
Details: male, human, in vivo, po, 50 mg, T ½

[
  {
    "Compound": "Nc1nc(=O)n(C2C=CC(CO)O2)cc1F (stereo not shown)",
    "half-life, h": 14.3
  }
]

====

Assay: clinical
Settings: male, human, in vivo, 200 mg, Cmax

[
  {
    "Compound": "Nc1nc(=O)n(C2C=CC(CO)O2)cc1F (stereo not shown)",
    "Cmax (ng/mL)": 1750
  }
]

====

Assay: in vivo
Details: male, dog, 15 mg/kg
Property Measured: Cmax at 12 m (µM)

[
  {
    "Molecule": "Nc1nc(=O)n(C2C=CC(CO)O2)cc1F (stereo not shown)",
    "Property Measured": "Cmax at 12 m",
    "Units Symbol": "µM",
    "Result Number": 74
  }
]
